The following compounds are listed with their measured pEC50 values.
Target: human S1P receptor EDG-3 (S1P3) (Homo sapiens, UniProt Q99500)
Sequence (Q99500 whole entry): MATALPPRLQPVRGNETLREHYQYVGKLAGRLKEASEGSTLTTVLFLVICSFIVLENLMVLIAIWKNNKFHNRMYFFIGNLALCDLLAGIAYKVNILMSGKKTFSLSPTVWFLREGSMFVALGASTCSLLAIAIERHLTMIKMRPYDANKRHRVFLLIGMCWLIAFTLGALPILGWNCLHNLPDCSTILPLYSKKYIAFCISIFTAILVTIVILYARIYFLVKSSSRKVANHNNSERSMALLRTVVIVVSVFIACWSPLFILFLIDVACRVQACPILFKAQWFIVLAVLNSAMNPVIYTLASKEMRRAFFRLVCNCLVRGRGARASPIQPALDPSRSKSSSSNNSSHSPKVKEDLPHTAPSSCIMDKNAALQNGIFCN
Experiment: S1P receptor profiling, GTP[γ-35S] binding SPA
Conditions: membranes of transfected CHO or RH7777 cells
Description: Sphingosine-1-phosphate (S1P) Receptor Profiling Agonist activities of compounds are tested on the human S1P receptors EDG-1 (S1P1), EDG-3 (S1P3), EDG-5 (S1P2), EDG-6 (S1P4) and EDG-8 (S1P5). […] The assay technology used is SPA (scintillation proximity based assay). […] Luminescence of SPA beads triggered by membrane bound GTP [γ-^35S] is quantified with a TOPcount plate reader (Packard). EC50s are calculated using standard curve fitting software. […]
pEC50: −log10 of the molar value.

compound	pEC50
CCCCCOc1ccc2cc(CC[C@@](C)(N)[C@@H](C)OP(=O)(O)O)ccc2c1 [Example 20]	8.07
CCCCCCCOc1ccc(CC[C@@](C)(N)[C@H](C)OP(=O)(O)O)cc1 [Example 19]	8.85
CCCCCCCOc1ccc(CC[C@@](C)(N)[C@@H](C)OP(=O)(O)O)cc1 [Example 18]	8.34
